# System: Fibroblast
# Assay text: Multiplex assay against human fibroblast
# Assay type: toxicity, cell-based
# Assay conditions: 12 h, 10 µM, compound concentration 10 uM, number of replicates 2
*1 amine or outer side, *2 acyl side, *3 side chain or, on linkers, in order; H or OH if unused. Where a SMILES comes first, the peptide text is derived from it. Bridges are numbered along the chain shown (N, C = ends). Roman numbers before positions name the chains, in order. [ ]: non-standard residue; d: D form. Hexamethylenediamine = C(CCCN[*:2])CCN[*:1]; Dip = N[C@H](C(=O)O)C(c1ccccc1)c1ccccc1; Chg = N[C@H](C(=O)O)C1CCCCC1; NMeA = CN[C@@H](C)C(=O)O
Parameter measured: Population Healthy Nuclei (%)
Answers without a unit are incomplete; give the number and then its unit.

Molecule	Reading
CN[C@@H](C)C(=O)N[C@H](C(=O)N1CCC[C@H]1C(=O)N[C@H](C(=O)NCCCCCCNC(=O)[C@@H](NC(=O)[C@@H]1CCCN1C(=O)[C@@H](NC(=O)[C@H](C)NC)C1CCCCC1)C(c1ccccc1)c1ccccc1)C(c1ccccc1)c1ccccc1)C1CCCCC1 (I: H-[NMeA][Chg]P[Dip] / II: H-[NMeA][Chg]P[Dip]; linker I:C-II:C via Hexamethylenediamine)	55%

Attention now shifts to the item below.
Which Population Healthy Nuclei (%) value belongs to `CC(C)c1c(NC(=O)Nc2ccc(Cl)cc2)c(=O)n(-c2ccccc2)n1C` ?
68%
